Source listed as patent US11254686B1.

systemName: adenosine A2B receptor (Homo sapiens (Human))
protocolText: Adenosine receptor activity assay (Table 1), A2B activity
Assay type: biochemical
reportedConditions: A2A activity to A2B activity (A2A/A2B)
measuredEndpoint: Ratio

chemicalStructure: CO[C@H]1CCN(C(=O)c2nc(N[C@@H](C)c3ccccn3)nc3cc(C)sc23)C1
recordedValue: 3.82
--
chemicalStructure: C[C@H](Nc1nc(C(=O)N2CC[C@H](O)C2)c2sccc2n1)c1cncc(Cl)c1
recordedValue: 57.61
--
chemicalStructure: O=C(c1nc(NCCc2ccccc2)nc2ccsc12)N1CCCC1
recordedValue: 1.70
--
chemicalStructure: O=C(c1nc(NCc2cccc(Cl)c2)nc2ccsc12)N1CC[C@@H](O)C1
recordedValue: 13.75
--
chemicalStructure: C[C@H](Nc1nc(C(=O)N2CCC2)c2sc(N)cc2n1)c1ccccn1
recordedValue: 36.15

a = C[C@H](Nc1nc(C(=O)N2CC[C@@H](F)C2)c2sccc2n1)c1cncc(F)c1
b = C[C@H](Nc1nc(C(=O)N2CCCC2)c2sc(C(F)(F)F)cc2n1)c1cccnc1
Which has the higher Ratio, a or b ? Could you answer with the label of the item you picked?
b
(b: 143.99, a: 58.04)

a = COc1ccc(Oc2cc(CNC(=O)c3nc(N[C@@H](C)c4cncc(F)c4)nc4ccsc34)ccn2)cc1
b = O=C(NCc1cncnc1)c1nc(NCc2cncnc2)nc2ccsc12
c = CNc1cc2nc(N[C@@H](C)c3cncc(F)c3)nc(C(=O)N3CC(OC)C3)c2s1
d = Cc1cc2nc(N[C@@H](C)c3cncc(F)c3)nc(C(=O)N3CC[C@@H](O)C3)c2s1
e = CNc1cc2nc(N[C@@H](C)c3cccnc3)nc(C(=O)N3CCC3)c2s1
Order field: Ratio | Direction: descending (largest first) // list labels; follow requested order
d, c, e, a, b

P = CNc1cc2nc(N[C@@H](C)c3ccccn3)nc(C(=O)NCCO)c2s1
Q = CNc1cc2nc(N[C@@H](C)c3cccnc3)nc(C(=O)N3CC[C@@H](F)C3)c2s1
Out of P and Q , name the one with the higher Ratio. Indicate your choice by writing its label.
P
(P: 44.93, Q: 29.83)

----------
systemName: adenosine A2B receptor (Homo sapiens (Human), UniProt P29275)
Sequence (P29275 whole entry): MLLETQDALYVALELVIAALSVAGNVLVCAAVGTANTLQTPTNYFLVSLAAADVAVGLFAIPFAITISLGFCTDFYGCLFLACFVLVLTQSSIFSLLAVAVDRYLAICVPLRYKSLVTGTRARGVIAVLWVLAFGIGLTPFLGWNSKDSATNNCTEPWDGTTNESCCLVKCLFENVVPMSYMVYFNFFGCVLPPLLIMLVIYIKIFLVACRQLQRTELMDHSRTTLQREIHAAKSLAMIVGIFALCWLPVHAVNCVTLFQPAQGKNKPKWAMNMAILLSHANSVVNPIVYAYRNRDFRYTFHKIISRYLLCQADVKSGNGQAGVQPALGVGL
protocolText: Adenosine receptor activity assay (Table 1), A2B activity
Format: biochemical
reportedConditions: A2A activity to A2B activity (A2A/A2B)
measuredEndpoint: Ratio

A = C[C@H](NC(=O)c1nc(N[C@@H](C)c2ccncc2)nc2ccsc12)c1ccncc1
B = C[C@H](Nc1nc(C(=O)N2CCC2)c2sccc2n1)c1cccc(F)c1
Which of the two items, A and B , has the greater recorded Ratio? Indicate your choice by writing its label.
B
(B: 32.43, A: 1.50)

P = Cc1cc2nc(N[C@@H](C)c3cccnc3)nc(C(=O)NC[C@H]3CCOC3)c2s1
Q = C[C@H](Nc1nc(C(=O)N2CCC2)c2sc(N)cc2n1)c1cncc(F)c1
R = Cc1cc2nc(N[C@@H](C)c3cccnc3)nc(C(=O)NC[C@@H](C)O)c2s1
S = COC1CN(C(=O)c2nc(N[C@@H](C)c3cncc(Cl)c3)nc3ccsc23)C1
Order by Ratio, ascending. // format: requested-order list of labels
P, S, Q, R
(P: 10.69, S: 51.97, Q: 78.77, R: 171.86)

----------
systemName: UniProtKB P30542
Sequence (P30542 whole entry): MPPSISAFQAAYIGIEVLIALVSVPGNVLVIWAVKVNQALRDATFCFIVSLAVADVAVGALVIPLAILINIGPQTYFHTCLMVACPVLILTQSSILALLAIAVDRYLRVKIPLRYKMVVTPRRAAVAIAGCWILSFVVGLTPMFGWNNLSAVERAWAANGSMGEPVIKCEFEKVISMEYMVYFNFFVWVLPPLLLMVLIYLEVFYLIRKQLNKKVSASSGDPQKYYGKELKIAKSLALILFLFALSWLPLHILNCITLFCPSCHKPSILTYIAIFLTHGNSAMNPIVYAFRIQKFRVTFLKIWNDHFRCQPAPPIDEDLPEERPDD
protocolText: Adenosine receptor activity assay (Table 1), A1 cAMP
Type: cell-based
measuredEndpoint: IC50

molecule: COC1CN(C(=O)c2nc(N[C@@H](C)c3cncc(F)c3)nc3cc(C)sc23)C1 [Example Z268]
systemName: UniProtKB P30542
IC50: 50 to 100 nM

I would be grateful if you could share the reported IC50 for COC1CN(C(=O)c2nc(N[C@@H](C)c3ccccn3)nc3cc(C)sc23)C1 [Example Z300] .
50 to 100 nM

For Cc1cc2nc(N[C@@H](C)c3cncc(F)c3)nc(C(=O)N3CC[C@H](O)C3)c2s1 [Example Z249] , what is its reported IC50?
> 500 nM

Quick one: IC50 of Cc1cc2nc(N[C@@H](C)c3ccccn3)nc(C(=O)N3CC(O)C3)c2s1 [Example Z285] ?
50 to 100 nM

Query (molecule): Cc1cc2nc(N[C@@H](C)c3cncc(F)c3)nc(C(=O)NCC3CCOCC3)c2s1 [Example Z376] ; field requested: IC50
50 to 100 nM

I am curious: what IC50 value has been reported for C[C@H](Nc1nc(C(=O)N2CCCC2)c2sccc2n1)c1cncc(Cl)c1 [Example Z231] ?
> 500 nM

IC50 lookup needed for Cc1cc2nc(N[C@@H](C)c3cncc(F)c3)nc(C(=O)NCC(C)(C)O)c2s1 [Example Z308] , thanks.
50 to 100 nM

GET /values?readout=IC50&item= Cc1cc2nc(N[C@@H](C)c3ccccn3)nc(C(=O)N3CC[C@@H](O)C3)c2s1 [Example Z298]
> 500 nM

----------
systemName: UniProt:P29274
Sequence (P29274 whole entry): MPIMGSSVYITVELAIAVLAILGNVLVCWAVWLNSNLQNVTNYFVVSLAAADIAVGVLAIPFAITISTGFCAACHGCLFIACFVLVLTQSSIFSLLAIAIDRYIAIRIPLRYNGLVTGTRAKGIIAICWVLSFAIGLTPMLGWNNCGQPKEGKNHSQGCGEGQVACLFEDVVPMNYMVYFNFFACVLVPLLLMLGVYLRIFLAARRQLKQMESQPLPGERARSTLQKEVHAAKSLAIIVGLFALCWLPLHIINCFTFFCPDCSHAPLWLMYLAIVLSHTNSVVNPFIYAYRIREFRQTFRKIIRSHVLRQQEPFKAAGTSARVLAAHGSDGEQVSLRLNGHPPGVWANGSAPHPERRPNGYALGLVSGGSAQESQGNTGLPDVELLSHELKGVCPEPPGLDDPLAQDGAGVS
protocolText: Adenosine receptor activity assay (Table 1), A2A activity
Type: biochemical
reportedConditions: read-out: Ave A2A cAMP IC50
pIC50: −log10 of the molar value.
Below is a list of entries, each paired with its recorded pIC50 value.

Solved cases below.
compound: C[C@H](Nc1nc(C(=O)N2CC(NC(=O)CC(C)(C)C)C2)c2sccc2n1)c1cncc(F)c1
pIC50: 7.30 to 8.00
//
compound: C[C@H](O)CNC(=O)c1nc(N[C@@H](C)c2cncc(Cl)c2)nc2ccsc12
pIC50: < 6.30

Request: pIC50, test system UniProt:P29274, entry C[C@H](Nc1nc(C(=O)NCc2ncc[nH]2)c2sccc2n1)c1ccccn1
6.30 to 7.00

I'm curious: which pIC50 was measured for Cc1cc2nc(N[C@@H](C)c3cncc(F)c3)nc(C(=O)NCCC3CCN(C(=O)OC(C)(C)C)CC3)c2s1 tested on UniProt:P29274?
< 6.30

Which measured pIC50 belongs to C[C@H](Nc1nc(C(=O)N[C@H]2CC[C@@H](O)C2)c2sccc2n1)c1ccccn1 , tested on UniProt:P29274?
6.30 to 7.00

Give UniProt:P29274 pIC50 for C[C@H](Nc1nc(C(=O)N2CC3(COC3)C2)c2sccc2n1)c1cccnc1
6.30 to 7.00

Reported pIC50 for UniProt:P29274, given O=C(c1nc(NCc2cncc(F)c2)nc2ccsc12)N1CC[C@@H](F)C1 ?
6.30 to 7.00

Kindly state the measured pIC50 obtained for Cc1csc2c(C(=O)N3CC[C@H](O)C3)nc(N[C@@H](C)c3cncc(F)c3)nc12 with UniProt:P29274.
6.30 to 7.00

Under UniProt:P29274: pIC50 value of COCC(Nc1nc(C(=O)N[C@H]2C[C@@H](O)C2)c2sccc2n1)c1cccnc1 (stereo partly drawn) ?
6.30 to 7.00

----------
systemName: UniProt P29275
protocolText: Adenosine receptor activity assay (Table 1), A2B activity
Format: biochemical
reportedConditions: A2A activity to A2B activity (A2A/A2B)
measuredEndpoint: Ratio

chemicalStructure: C[C@H](NC(=O)c1nc(N[C@@H](C)c2ccccn2)nc2ccsc12)c1ccccn1
measuredEndpoint: Ratio
recordedValue: 1.42
//
chemicalStructure: C[C@H](Nc1nc(C(=O)NC2CNC2)c2sccc2n1)c1cncc(F)c1
measuredEndpoint: Ratio
recordedValue: 11.51
//
chemicalStructure: CNc1cc2nc(N[C@@H](C)c3ccccn3)nc(C(=O)N3CC[C@@H](C)C3)c2s1
measuredEndpoint: Ratio
recordedValue: 14.35
//
chemicalStructure: CO[C@@H]1CCN(C(=O)c2nc(N[C@@H](C)c3ccccn3)nc3cc(C)sc23)C1
measuredEndpoint: Ratio
recordedValue: 3.05
//
chemicalStructure: COc1cncc(NC(=O)c2nc(N[C@@H](C)c3ccccn3)nc3ccsc23)c1
measuredEndpoint: Ratio
recordedValue: 5.89
//
chemicalStructure: CC(C)(C)OC(=O)N1CC(NC(=O)c2nc(NCc3cncc(F)c3)nc3ccsc23)C1
measuredEndpoint: Ratio
recordedValue: 3.76
//
chemicalStructure: C[C@H](Nc1nc(C(=O)N2CC[C@H](NC(=O)OC(C)(C)C)C2)c2sccc2n1)c1cccnc1
measuredEndpoint: Ratio
recordedValue: 0.46
//
chemicalStructure: C[C@H](Nc1nc(C(=O)NC[C@H]2CCCN2C(=O)OC(C)(C)C)c2sccc2n1)c1ccccn1
measuredEndpoint: Ratio
recordedValue: 2.80
//
chemicalStructure: C[C@H](Nc1nc(C(=O)N2CC[C@@H](O)C2)c2sc(N)cc2n1)c1ccccn1
measuredEndpoint: Ratio
recordedValue: 18.79
//
chemicalStructure: COCCNC(=O)c1nc(NCc2cnccn2)nc2ccsc12
measuredEndpoint: Ratio
recordedValue: 3.17

1 = C[C@H](Nc1nc(C(=O)NCC2CCN(Cc3ccccc3)CC2)c2sccc2n1)c1cccnc1
2 = CS(=O)(=O)[C@@H]1CCN(C(=O)c2nc(NCc3cncc(F)c3)nc3ccsc23)C1
Compare the recorded Ratio of 1 and 2 ; state which is larger. Pick one; state its label.
2
(2: 10.23, 1: 1.97)

P = C[C@H](Nc1nc(C(=O)N2CC(O)C2)c2sc(N)cc2n1)c1cccnc1
Q = C[C@H](NC(=O)c1nc(N[C@@H](C)c2ccccc2)nc2ccsc12)c1ccccc1
Which of the two items, P and Q , has the greater recorded Ratio? When you have decided, please share the label of that item.
P

a = COC1CN(C(=O)c2nc(N[C@@H](C)c3cncc(F)c3)nc3ccsc23)C1
b = C[C@H](O)CNC(=O)c1nc(N[C@@H](C)c2cccnc2)nc2cc(C(F)(F)F)sc12
In terms of reported Ratio, does a or b have the smaller number? Identify your pick by its label.
a
